Task for the reader: assign each of the following compounds its reported viability, T/C.
# System: 521955-158-R2-J5-PDC complex spheroids, viability
# Assay: Anticancer human tumor 521955-158-R2-J5-PDC patient-derived pancreatic carcinoma cell line growth inhibition [RAS]
# Details: second compound 0.0949 µM; first compound 3.16 µM; active compounds read low
One number for each entry, in %.

CC(Nc1ccc2c(c1)OCCn1cc(N3C(=O)OCC3C(F)F)nc1-2)C(N)=O (stereo not drawn) + CCn1c(-c2cccnc2C(C)OC)c2c3cc(ccc31)N1CCOC(CC(NC(=O)C(C(C)C)N(C)C(=O)C3(F)CCN(C(=O)C#CC(C)(C)N(C)C)CC3)C(=O)N3CCCC(N3)C(=O)OCC(C)(C)C2)C1: 74.8
CC(=O)OC12COC1CC(O)C1(C)C(=O)C(O)C3=C(C)C(OC(=O)C(O)C(NC(=O)OC(C)(C)C)c4ccccc4)CC(O)(C(OC(=O)c4ccccc4)C21)C3(C)C (stereo not drawn) + CCn1c(-c2cccnc2C(C)OC)c2c3cc(ccc31)N1CCOC(CC(NC(=O)C(C(C)C)N(C)C(=O)C3(F)CCN(C(=O)C#CC(C)(C)N(C)C)CC3)C(=O)N3CCCC(N3)C(=O)OCC(C)(C)C2)C1: 38.2

Q. Consider the compound shown here: CC1(O)CCCC1n1c(=O)c(C(F)F)cc2cnc(NC3CCN(S(C)(=O)=O)CC3)nc21 (stereo not drawn) + CCn1c(-c2cccnc2C(C)OC)c2c3cc(ccc31)N1CCOC(CC(NC(=O)C(C(C)C)N(C)C(=O)C3(F)CCN(C(=O)C#CC(C)(C)N(C)C)CC3)C(=O)N3CCCC(N3)C(=O)OCC(C)(C)C2)C1 What is its recorded viability, T/C?
A. 90.5

###

# System: 521955-158-R2-J5-PDC complex spheroids, viability
# Assay: Anticancer human tumor 521955-158-R2-J5-PDC cell line growth inhibition [RAS]
# Details: second compound 0.0949 µM; first compound 10 µM; active compounds read low
Could you please report measured viability, T/C for the items listed next?

C[C@@H](NC(=O)c1ncnc(N)c1Cl)c1ncc(C(=O)Nc2cc(C(F)(F)F)c(Cl)cn2)s1 + CCn1c(-c2cc(N3CCN(C)CC3)cnc2C(C)OC)c2c3cc(ccc31)-c1csc(n1)CC(NC(=O)C1CC1C)C(=O)N1CCCC(N1)C(=O)OCC(C)(C)C2: 17.8%

Read the next record carefully.
Q. Quick one: viability, T/C of CC1(O)CCCC1n1c(=O)c(C(F)F)cc2cnc(NC3CCN(S(C)(=O)=O)CC3)nc21 (configuration not stated) + CCn1c(-c2cc(N3CCN(C)CC3)cnc2C(C)OC)c2c3cc(ccc31)-c1csc(n1)CC(NC(=O)C1CC1C)C(=O)N1CCCC(N1)C(=O)OCC(C)(C)C2 ?
A. 7%

###

Consider the following compounds; for each one, report its viability, T/C.
# System: 521955-158-R2-J5-PDC complex spheroids, viability
# Assay: Anticancer human tumor 521955-158-R2-J5-PDC cell line growth inhibition [RAS];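 also: spheroids also contain HUVEC endothelial cells and mesenchymal stem cells as stroma; compound exposure lasted seven days before the viability read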
# Details: second compound 0.03 µM; first compound 0.0316 µM; active compounds read low
Answers are plain numbers, in %.

CC(C)NCC(C(=O)N1CCN(c2ncnc3c2C(C)CC3O)CC1)c1ccc(Cl)cc1 (centres undefined) + CCn1c(-c2cc(N3CCN(C)CC3)cnc2C(C)OC)c2c3cc(ccc31)-c1csc(n1)CC(NC(=O)C1CC1C)C(=O)N1CCCC(N1)C(=O)OCC(C)(C)C2: 20.9
O=C(c1ccc(F)c(F)c1Nc1ccc(I)cc1F)N1CC(O)([C@@H]2CCCCN2)C1 + CCn1c(-c2cc(N3CCN(C)CC3)cnc2C(C)OC)c2c3cc(ccc31)-c1csc(n1)CC(NC(=O)C1CC1C)C(=O)N1CCCC(N1)C(=O)OCC(C)(C)C2: 14.9
CC(C)NCC(C(=O)N1CCN(c2ncnc3c2C(C)CC3O)CC1)c1ccc(Cl)cc1 (centres undefined) + CCn1c(-c2cccnc2C(C)OC)c2c3cc(ccc31)N1CCOC(CC(NC(=O)C(C(C)C)N(C)C(=O)C3(F)CCN(C(=O)C#CC(C)(C)N(C)C)CC3)C(=O)N3CCCC(N3)C(=O)OCC(C)(C)C2)C1: 83.9

Now for another entry.
Q. Recorded viability, T/C of CCC(CC)c1cc(NC2CCC(N)C2)n2nccc2n1 (centres undefined) + CCn1c(-c2cc(N3CCN(C)CC3)cnc2C(C)OC)c2c3cc(ccc31)-c1csc(n1)CC(NC(=O)C1CC1C)C(=O)N1CCCC(N1)C(=O)OCC(C)(C)C2 , please.
A. 23.9

###

# Test system: 521955-158-R2-J5-PDC complex spheroids, viability
# Assay: Anticancer human tumor 521955-158-R2-J5-PDC cell line growth inhibition [RAS];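 also: spheroids also contain HUVEC endothelial cells and mesenchymal stem cells as stroma; compound exposure lasted seven days before the viability read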
# Details: second compound 0.003 µM; first compound 0.01 µM; active compounds read low
For each of the compounds below, state its viability, T/C.
Give bare numbers, in %.

CCN1CCN(Cc2ccc(Nc3ncc(F)c(-c4cc(F)c5nc(C)n(C(C)C)c5c4)n3)nc2)CC1 + CCn1c(-c2cccnc2C(C)OC)c2c3cc(ccc31)N1CCOC(CC(NC(=O)C(C(C)C)N(C)C(=O)C3(F)CCN(C(=O)C#CC(C)(C)N(C)C)CC3)C(=O)N3CCCC(N3)C(=O)OCC(C)(C)C2)C1: 89.2

Q. Lookup: viability, T/C / 521955-158-R2-J5-PDC complex spheroids, viability / CCN1CCN(Cc2ccc(Nc3ncc(F)c(-c4cc(F)c5nc(C)n(C(C)C)c5c4)n3)nc2)CC1 + CCn1c(-c2cc(N3CCN(C)CC3)cnc2C(C)OC)c2c3cc(ccc31)-c1csc(n1)CC(NC(=O)C1CC1C)C(=O)N1CCCC(N1)C(=O)OCC(C)(C)C2
A. 40.9

###

For each record, write down the corresponding viability, T/C.
# Test system: 521955-158-R2-J5-PDC complex spheroids, viability
# Assay: Anticancer human tumor 521955-158-R2-J5-PDC cell line growth inhibition [RAS];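 also: spheroids also contain HUVEC endothelial cells and mesenchymal stem cells as stroma; compound exposure lasted seven days before the viability read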
# Details: second compound 0.03 µM; first compound 0.01 µM; active compounds read low
One number for each entry, in %.

Some solved entries appear below for comparison.
O=C(c1ccc(F)c(F)c1Nc1ccc(I)cc1F)N1CC(O)([C@@H]2CCCCN2)C1 + CCn1c(-c2cccnc2C(C)OC)c2c3cc(ccc31)N1CCOC(CC(NC(=O)C(C(C)C)N(C)C(=O)C3(F)CCN(C(=O)C#CC(C)(C)N(C)C)CC3)C(=O)N3CCCC(N3)C(=O)OCC(C)(C)C2)C1: 59.6
CCN1CCN(Cc2ccc(Nc3ncc(F)c(-c4cc(F)c5nc(C)n(C(C)C)c5c4)n3)nc2)CC1 + CCn1c(-c2cc(N3CCN(C)CC3)cnc2C(C)OC)c2c3cc(ccc31)-c1csc(n1)CC(NC(=O)C1CC1C)C(=O)N1CCCC(N1)C(=O)OCC(C)(C)C2: 18.4
C=CC(=O)Nc1cc(Nc2nccc(-c3cn(C)c4ccccc34)n2)c(OC)cc1N(C)CCN(C)C + CCn1c(-c2cc(N3CCN(C)CC3)cnc2C(C)OC)c2c3cc(ccc31)-c1csc(n1)CC(NC(=O)C1CC1C)C(=O)N1CCCC(N1)C(=O)OCC(C)(C)C2: 23.2

The record that follows has no viability, T/C shown yet.
Q. I have this compound here, CC(C)n1nc(-c2ccc3oc(N)nc3c2)c2c(N)ncnc21 + CCn1c(-c2cc(N3CCN(C)CC3)cnc2C(C)OC)c2c3cc(ccc31)-c1csc(n1)CC(NC(=O)C1CC1C)C(=O)N1CCCC(N1)C(=O)OCC(C)(C)C2 , and I need its recorded viability, T/C.
A. 17.9

###

# Tested on: 521955-158-R2-J5-PDC complex spheroids, viability
# Assay: Anticancer human tumor 521955-158-R2-J5-PDC cell line growth inhibition [RAS];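 also: spheroids also contain HUVEC endothelial cells and mesenchymal stem cells as stroma; compound exposure lasted seven days before the viability read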
# Details: second compound 0.00949 µM; first compound 0.00316 µM; active compounds read low
Hi there, I'd appreciate the recorded viability, T/C for every entry that follows.
Numbers only, in %.

CCN1CCN(Cc2ccc(Nc3ncc(F)c(-c4cc(F)c5nc(C)n(C(C)C)c5c4)n3)nc2)CC1 + CCn1c(-c2cc(N3CCN(C)CC3)cnc2C(C)OC)c2c3cc(ccc31)-c1csc(n1)CC(NC(=O)C1CC1C)C(=O)N1CCCC(N1)C(=O)OCC(C)(C)C2: 35.8
Nc1ccn(C2OC(CO)C(O)C2(F)F)c(=O)n1 (configuration not stated) + CCn1c(-c2cccnc2C(C)OC)c2c3cc(ccc31)N1CCOC(CC(NC(=O)C(C(C)C)N(C)C(=O)C3(F)CCN(C(=O)C#CC(C)(C)N(C)C)CC3)C(=O)N3CCCC(N3)C(=O)OCC(C)(C)C2)C1: 85.3

For each of the items listed, what is its viability, T/C?
1. O=C(c1ccc(F)c(F)c1Nc1ccc(I)cc1F)N1CC(O)([C@@H]2CCCCN2)C1 + CCn1c(-c2cc(N3CCN(C)CC3)cnc2C(C)OC)c2c3cc(ccc31)-c1csc(n1)CC(NC(=O)C1CC1C)C(=O)N1CCCC(N1)C(=O)OCC(C)(C)C2
2. C=CC(=O)N1CCN(c2nc(OCC3CCCN3C)nc3c(F)c(-c4nc(N)cc(C)c4C(F)(F)F)c(Cl)cc23)C(C)C1 (configuration not stated) + CCn1c(-c2cccnc2C(C)OC)c2c3cc(ccc31)N1CCOC(CC(NC(=O)C(C(C)C)N(C)C(=O)C3(F)CCN(C(=O)C#CC(C)(C)N(C)C)CC3)C(=O)N3CCCC(N3)C(=O)OCC(C)(C)C2)C1
3. CC(C)n1nc(-c2ccc3oc(N)nc3c2)c2c(N)ncnc21 + CCn1c(-c2cc(N3CCN(C)CC3)cnc2C(C)OC)c2c3cc(ccc31)-c1csc(n1)CC(NC(=O)C1CC1C)C(=O)N1CCCC(N1)C(=O)OCC(C)(C)C2
4. C=CC(=O)Nc1cc(Nc2nccc(-c3cn(C)c4ccccc34)n2)c(OC)cc1N(C)CCN(C)C + CCn1c(-c2cccnc2C(C)OC)c2c3cc(ccc31)N1CCOC(CC(NC(=O)C(C(C)C)N(C)C(=O)C3(F)CCN(C(=O)C#CC(C)(C)N(C)C)CC3)C(=O)N3CCCC(N3)C(=O)OCC(C)(C)C2)C1
5. Nc1ccn(C2OC(CO)C(O)C2(F)F)c(=O)n1 (configuration not stated) + CCn1c(-c2cc(N3CCN(C)CC3)cnc2C(C)OC)c2c3cc(ccc31)-c1csc(n1)CC(NC(=O)C1CC1C)C(=O)N1CCCC(N1)C(=O)OCC(C)(C)C2
6. CC(C)n1nc(-c2ccc3oc(N)nc3c2)c2c(N)ncnc21 + CCn1c(-c2cccnc2C(C)OC)c2c3cc(ccc31)N1CCOC(CC(NC(=O)C(C(C)C)N(C)C(=O)C3(F)CCN(C(=O)C#CC(C)(C)N(C)C)CC3)C(=O)N3CCCC(N3)C(=O)OCC(C)(C)C2)C1

A.
1: 32.3; 2: 97.7; 3: 34.9; 4: 101; 5: 32.2; 6: 83.6

Respectfully, I request viability, T/C for each entry included below.
1. C=CC(=O)N1CCN(c2nc(OCC3CCCN3C)nc3c(F)c(-c4nc(N)cc(C)c4C(F)(F)F)c(Cl)cc23)C(C)C1 (configuration not stated) + CCn1c(-c2cc(N3CCN(C)CC3)cnc2C(C)OC)c2c3cc(ccc31)-c1csc(n1)CC(NC(=O)C1CC1C)C(=O)N1CCCC(N1)C(=O)OCC(C)(C)C2
2. CCN1CCN(Cc2ccc(Nc3ncc(F)c(-c4cc(F)c5nc(C)n(C(C)C)c5c4)n3)nc2)CC1 + CCn1c(-c2cccnc2C(C)OC)c2c3cc(ccc31)N1CCOC(CC(NC(=O)C(C(C)C)N(C)C(=O)C3(F)CCN(C(=O)C#CC(C)(C)N(C)C)CC3)C(=O)N3CCCC(N3)C(=O)OCC(C)(C)C2)C1
3. O=C(c1ccc(F)c(F)c1Nc1ccc(I)cc1F)N1CC(O)([C@@H]2CCCCN2)C1 + CCn1c(-c2cccnc2C(C)OC)c2c3cc(ccc31)N1CCOC(CC(NC(=O)C(C(C)C)N(C)C(=O)C3(F)CCN(C(=O)C#CC(C)(C)N(C)C)CC3)C(=O)N3CCCC(N3)C(=O)OCC(C)(C)C2)C1
4. C=CC(=O)Nc1cc(Nc2nccc(-c3cn(C)c4ccccc34)n2)c(OC)cc1N(C)CCN(C)C + CCn1c(-c2cc(N3CCN(C)CC3)cnc2C(C)OC)c2c3cc(ccc31)-c1csc(n1)CC(NC(=O)C1CC1C)C(=O)N1CCCC(N1)C(=O)OCC(C)(C)C2

A.
1: 35; 2: 85.5; 3: 92.2; 4: 41.3
